- Species on record: Homo sapiens
- ASSAY_SUMMARY: Fraction unbound in human plasma
MEASURED_PROPERTY: fraction unbound

Q: Name the reported fraction unbound value associated with the compound C=C[C@@H]1C[C@]1(NC(=O)[C@@H]1C[C@@H]2CN1C(=O)C(C(C)C)NC(C(F)(F)F)CCCCCCc1cccc3c1CN(C3)C(=O)O2)C(=O)NS(=O)(=O)C1CC1 (single isomer, unassigned)
A: 0.019

====

- ASSAY_SUMMARY: Drug level in Sprague-Dawley rat liver at 4 mg/kg, po after 4 hrs
- Type: ADME, organism-based
- Parameters: dose 4 mg/kg, route oral
- ASSAY_CONTEXT: read-out: Drug uptake
MEASURED_PROPERTY: concentration at 4 h (nM)
Dear colleague, please return just the value in nM, with no unit written.

Q: # get_value(readout='concentration at 4 h', item= C=C[C@@H]1C[C@]1(NC(=O)[C@@H]1C[C@@H]2CN1C(=O)[C@H](C1CCCCC1)N(C)[C@H](C)CCCCCCc1cccc3c1CN(C3)C(=O)O2)C(=O)NS(=O)(=O)C1CC1 )
A: 560

The measurements presented in this section are drawn from ChEMBL document CHEMBL1158491.
